TEST DESCRIPTION: Thermodynamic solubility of compound at pH 7.4 aqueous phosphate buffer
RESULT TYPE: solubility thermodynamic (µM)
Could you give me the number in µM? Just the number is fine.

Worked set:
CS(=O)(=O)NC(=O)CCc1cn(-c2ccc(F)cc2)nc1-c1ccc(Cl)cc1 ... 25
CS(=O)(=O)NC(=O)/C=C/c1cn(-c2ccc(Cl)cc2)nc1-c1ccncc1 ... 90

# context switch: different compound, same solubility thermodynamic
Exam item: Can you look up the measured solubility thermodynamic of `CS(=O)(=O)NC(=O)CCc1cn(-c2ccc(Br)cc2)nc1-c1ccc(N)cc1` for me?
Marked response: 160

Source listed as ChEMBL document CHEMBL4842359.
